System: L1210 leukemia ip in BDF1 mice, survival T/C
Test: NCI In Vivo Anticancer Drug Screen. Data for tumor model L1210 Leukemia (intraperitoneal) in B6D2F1 (BDF1) mice
Settings: endpoint: mean survival time; dose: 100.0 mg/kg/injection; schedule: Q04DX002 (ip); vehicle: saline with Tween-80; higher = longer survival
Toxic doses and inconclusive results are not listed.
Readout: T/C

Below, 5 compounds whose answers are already recorded.
| Compound | T/C |
| --- | --- |
| CCOC(=O)c1[nH]c(C)c(C(=O)OCC)c1C | 99 % of control |
| Cc1cc(-c2ccc(NC(=O)N(C)C)c(C)c2)ccc1NC(=O)N(C)C | 100 % of control |
| Cn1c2c(c3ccccc31)CC(C(C)(C)C)CC2 (stereo not drawn) | 100 % of control |
| O=C1c2cscc2C(O)c2c(Cl)sc(Cl)c21 (stereo not drawn) | 101 % of control |
| N#C/C(=C\C=C\C1CCCCC1)C1CCC([N+](=O)[O-])CC1 (stereo not drawn) | 105 % of control |

For every listed record, write down its T/C.
1. COc1ccc(CC(C)=C(C#N)C#N)cc1OC
2. COc1cc(C)cc(C(=O)O)c1

1: 97 % of control; 2: 97 % of control

For every listed record, write down its T/C.
1. CS(=O)(=O)Oc1ccccc1OS(C)(=O)=O
2. CCP(=O)(CC(=O)O)c1ccccc1 (stereo not drawn)
3. CCCNC(=O)Oc1ccccc1-c1ccccc1
4. CSc1ncnc2c1ncn2N(CC1CO1)C(C)=O (stereo not drawn)

1. 91 % of control
2. 109 % of control
3. 92 % of control
4. 91 % of control

For every listed record, write down its T/C.
1. CN1CC(=O)N2c3ccccc3CC2C1=O (stereo not drawn)
2. Cc1cc(Cl)cc(Cl)c1OCC(N)=O
3. CCCC(=O)Oc1ccc(/C=N/NC(N)=S)nc1
4. C[P+](c1ccccc1)(c1ccc(Cl)cc1)c1ccc(Cl)cc1

1. 102 % of control
2. 94 % of control
3. 113 % of control
4. 116 % of control

For every listed record, write down its T/C.
1. Oc1ccccc1C=Nc1ccc(Cl)cc1
2. CC(C)(CCl)c1ccccc1
3. CC(C)C(C=O)(CCN1CCCCC1)c1cccc2ccccc12 (stereo not drawn)

1. 105 % of control
2. 107 % of control
3. 88 % of control

====

Hi there, I'd appreciate the recorded T/C for every entry that follows.
Tested on: L1210 leukemia ip in BDF1 mice, survival T/C
Experiment: NCI In Vivo Anticancer Drug Screen. Data for tumor model L1210 Leukemia (intraperitoneal) in B6D2F1 (BDF1) mice
Conditions: endpoint: mean survival time; dose: 400.0 mg/kg/injection; schedule: Q04DX003 (ip); vehicle: saline with Tween-80; higher = longer survival
Toxic doses and inconclusive results are not listed.

Below, 3 compounds whose answers are already recorded.
| Compound | T/C |
| --- | --- |
| CCOC(=O)OCCCN(C)C | 96 % of control |
| CCSC(=O)CC | 95 % of control |
| Cc1ccc(C2(C#N)CC2)cc1 | 104 % of control |

For every listed record, write down its T/C.
1. CCOC(=O)CCN(CCC(=O)OCC)C(C)C
2. O=C(Nc1cccc(C(F)(F)F)c1)c1ccc(C(=O)Nc2cccc(C(F)(F)F)c2)cc1
3. CCOC(=O)Nc1ccc([N+](=O)[O-])cc1[N+](=O)[O-]
4. COc1cc(C=O)ccc1OCc1ccccc1
5. CCCCCC(C)C(=O)CCCC (centres undefined) (tested in a mixture with another compound)

["101 % of control", "95 % of control", "98 % of control", "100 % of control", "86 % of control"]
